We begin with a simple list: items and their reported Hill coefficient.
- system-name: Serotonin 2 (5-HT2) receptor (Mus musculus) (UniProt Q02152+P34968+P35363)
- Sequence (P34968 whole entry, looked up): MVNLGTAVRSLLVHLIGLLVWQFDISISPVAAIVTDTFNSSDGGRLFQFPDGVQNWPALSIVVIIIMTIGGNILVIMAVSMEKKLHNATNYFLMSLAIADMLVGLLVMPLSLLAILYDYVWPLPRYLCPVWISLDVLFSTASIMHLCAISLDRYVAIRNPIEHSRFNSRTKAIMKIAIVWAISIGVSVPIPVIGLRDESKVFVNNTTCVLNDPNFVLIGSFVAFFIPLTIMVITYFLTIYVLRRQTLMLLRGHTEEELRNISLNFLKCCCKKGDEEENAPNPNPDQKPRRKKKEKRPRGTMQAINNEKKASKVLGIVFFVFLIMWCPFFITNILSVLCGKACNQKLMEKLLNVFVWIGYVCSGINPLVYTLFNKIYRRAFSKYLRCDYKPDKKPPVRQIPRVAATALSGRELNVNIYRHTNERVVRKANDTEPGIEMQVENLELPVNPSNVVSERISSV
- Sequence (P35363 whole entry, looked up): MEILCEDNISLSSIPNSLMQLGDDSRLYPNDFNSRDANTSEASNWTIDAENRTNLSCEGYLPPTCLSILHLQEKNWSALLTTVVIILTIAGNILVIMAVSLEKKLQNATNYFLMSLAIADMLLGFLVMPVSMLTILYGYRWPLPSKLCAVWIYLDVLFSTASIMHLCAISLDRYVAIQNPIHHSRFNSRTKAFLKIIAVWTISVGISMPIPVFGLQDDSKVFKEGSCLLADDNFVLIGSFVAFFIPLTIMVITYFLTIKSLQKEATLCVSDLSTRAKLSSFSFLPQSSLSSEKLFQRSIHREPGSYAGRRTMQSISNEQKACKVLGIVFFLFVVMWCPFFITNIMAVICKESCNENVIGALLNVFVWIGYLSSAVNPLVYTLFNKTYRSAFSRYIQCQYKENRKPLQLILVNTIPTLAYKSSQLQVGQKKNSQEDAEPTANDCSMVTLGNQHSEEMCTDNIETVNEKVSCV
- Sequence (Q02152 whole entry, looked up): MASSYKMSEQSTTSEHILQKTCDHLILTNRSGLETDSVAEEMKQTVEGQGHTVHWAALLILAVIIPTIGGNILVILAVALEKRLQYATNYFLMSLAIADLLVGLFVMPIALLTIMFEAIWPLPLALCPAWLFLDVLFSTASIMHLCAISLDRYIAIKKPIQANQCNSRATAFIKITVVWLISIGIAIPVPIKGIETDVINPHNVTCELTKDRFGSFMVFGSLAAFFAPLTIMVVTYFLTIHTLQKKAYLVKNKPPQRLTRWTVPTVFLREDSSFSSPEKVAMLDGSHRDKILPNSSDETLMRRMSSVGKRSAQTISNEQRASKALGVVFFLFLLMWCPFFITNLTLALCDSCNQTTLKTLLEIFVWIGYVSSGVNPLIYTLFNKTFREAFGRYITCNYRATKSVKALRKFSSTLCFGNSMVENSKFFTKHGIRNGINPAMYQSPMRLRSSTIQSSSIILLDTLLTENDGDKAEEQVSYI
- protocol-notes: Hill number was determined for inhibition of [3H]ketanserin binding to 5-hydroxytryptamine 2 receptor in mouse cerebral cortex
- Format: tissue-based
Lab note: jot the number down without any unit.

Solved entries (count: 5):
{"compound": "C1=CC2CCC1C(c1c[nH]c3ccccc13)C2N1CCCCC1 (stereo in doubt; 13a)", "Hill coefficient": 1}
{"compound": "O=C1CC2CCC1C(N1CCCCC1)C2c1ccccc1 (centres undefined)", "Hill coefficient": 1.2}
{"compound": "O=C1CC2CCC1C(N1CCCCC1)C2c1c[nH]c2ccccc12 (stereo in doubt; 10b)", "Hill coefficient": 0.9}
{"compound": "O=C1CC2CCC1C(N1CCCC1)C2c1c[nH]c2ccccc12 (stereo in doubt; 9b)", "Hill coefficient": 1}
{"compound": "C1=CC2CCC1C(c1c[nH]c3ccccc13)C2N1CCCC1 (stereo in doubt; 12b)", "Hill coefficient": 0.9}

# input Give the measured Hill coefficient of C1=CC2CCC1C(c1c[nH]c3ccccc13)C2N1CCCC1 (stereo in doubt; 12a) .
# output 1

# input Give the measured Hill coefficient of O=C1CC2CCC1C(N1CCCCC1)C2c1c[nH]c2ccccc12 (stereo in doubt; 10a) .
# output 1

# input Give the measured Hill coefficient of O=C1CC2CCC1C(N1CCCC1)C2c1c[nH]c2ccccc12 (stereo in doubt; 9a) .
# output 0.9

# input Give the measured Hill coefficient of C1=CC2CCC1C(c1c[nH]c3ccccc13)C2N1CCCCC1 (stereo in doubt; 13b) .
# output 0.9
